Molecular target: human recombinant PLK4 (Homo sapiens (Human), UniProt O00444)
Sequence (O00444 whole entry): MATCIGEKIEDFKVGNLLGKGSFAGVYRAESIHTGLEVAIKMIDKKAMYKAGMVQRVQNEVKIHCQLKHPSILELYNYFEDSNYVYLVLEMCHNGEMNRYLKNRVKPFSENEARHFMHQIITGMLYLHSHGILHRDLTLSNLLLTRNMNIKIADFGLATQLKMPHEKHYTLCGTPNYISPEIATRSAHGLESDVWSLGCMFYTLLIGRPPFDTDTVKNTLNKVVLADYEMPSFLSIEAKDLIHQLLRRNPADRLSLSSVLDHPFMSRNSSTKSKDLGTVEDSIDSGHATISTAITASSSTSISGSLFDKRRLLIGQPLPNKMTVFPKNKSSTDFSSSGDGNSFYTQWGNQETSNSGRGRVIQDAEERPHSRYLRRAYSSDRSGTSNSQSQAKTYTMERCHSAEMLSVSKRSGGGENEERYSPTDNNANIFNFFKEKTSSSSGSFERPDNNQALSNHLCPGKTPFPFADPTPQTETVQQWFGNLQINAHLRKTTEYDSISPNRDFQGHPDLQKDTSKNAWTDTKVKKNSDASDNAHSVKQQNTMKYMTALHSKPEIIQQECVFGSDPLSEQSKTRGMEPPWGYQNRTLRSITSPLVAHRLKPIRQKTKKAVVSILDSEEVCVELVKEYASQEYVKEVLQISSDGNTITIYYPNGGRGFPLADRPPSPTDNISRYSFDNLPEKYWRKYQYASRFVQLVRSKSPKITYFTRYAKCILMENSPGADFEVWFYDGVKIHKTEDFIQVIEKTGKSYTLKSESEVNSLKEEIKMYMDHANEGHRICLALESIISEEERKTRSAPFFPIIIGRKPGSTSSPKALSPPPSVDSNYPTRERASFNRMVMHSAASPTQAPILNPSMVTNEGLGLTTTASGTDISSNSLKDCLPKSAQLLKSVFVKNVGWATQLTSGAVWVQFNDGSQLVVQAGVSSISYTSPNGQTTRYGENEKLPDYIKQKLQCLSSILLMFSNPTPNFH
Experiment: PLK4 Biochemical Assay (ADP-Glo)
Details: 0.5 nM PLK4, 8.0 µM ATP, 4.7 µM MBP, 6 hours at RT
Procedure: Activity of human recombinant PLK4 (ThermoFisher, cat #PV6396) was measured by quantification of adenosine diphosphate (ADP) using the ADP-Glo Kinase Assay Kit (Promega, cat #V9102). […] The simultaneous conversion of the remaining ADP to ATP and measurement of the newly synthesized ATP was achieved by addition of 20 µL Kinase Detection reagent (Promega, cat #V914B), incubation for 30 min at RT, and luminescence detection using the EnVision plate reader (PerkinElmer). […]
So I've got a bunch of compounds here, and I need their IC50 values.
Numbers only, in nM.

- COc1cnc(OC)c(Nc2n[nH]c3cc([C@@H]4C[C@@]45C(=O)Nc4ccc(OC)cc45)ccc23)c1: 6.28
- COc1ccc2c(c1)[C@]1(C[C@H]1c1ccc3c(Nc4cccc5ccoc45)n[nH]c3c1)C(=O)N2: 3.85
- COc1ccc2c(c1)[C@]1(C[C@H]1c1ccc3c(Nc4nc(C5COC5)ncc4OC(F)F)n[nH]c3c1)C(=O)N2: 13.1
- COc1ccc2c(c1)[C@]1(C[C@H]1c1ccc3c(Nc4ncc(S(=O)(=O)N5CCC5)cc4OC)n[nH]c3c1)C(=O)N2: 0.874
- COc1ccc2c(c1)[C@]1(C[C@H]1c1ccc3c(Nc4cc(S(=O)(=O)C(C)C)ccc4OC)n[nH]c3c1)C(=O)N2: 3.29

Answer for every listed entry: what is its IC50? The entries follow.
1. COc1ccc2c(c1)[C@]1(C[C@H]1c1ccc3c(Nc4nccc5c4OCC5)n[nH]c3c1)C(=O)N2
2. COc1ccc2c(c1)[C@]1(C[C@H]1c1ccc3c(Nc4nc(C)ncc4C4CC4)n[nH]c3c1)C(=O)N2
3. COc1ccc2c(c1)[C@]1(C[C@H]1c1ccc3c(Nc4cc(C5CC5)nn4C)n[nH]c3c1)C(=O)N2

A:
1: 3.94; 2: 16.6; 3: 4.02

====

target: human recombinant Aurora B (Homo sapiens (Human), UniProt Q96GD4); experiment: Aurora B Kinase Biochemical Assay (ADP-Glo); conditions: ratio of Aurora B IC50 to PLK4 IC50 (selectivity)
Sequence (Q96GD4 whole entry): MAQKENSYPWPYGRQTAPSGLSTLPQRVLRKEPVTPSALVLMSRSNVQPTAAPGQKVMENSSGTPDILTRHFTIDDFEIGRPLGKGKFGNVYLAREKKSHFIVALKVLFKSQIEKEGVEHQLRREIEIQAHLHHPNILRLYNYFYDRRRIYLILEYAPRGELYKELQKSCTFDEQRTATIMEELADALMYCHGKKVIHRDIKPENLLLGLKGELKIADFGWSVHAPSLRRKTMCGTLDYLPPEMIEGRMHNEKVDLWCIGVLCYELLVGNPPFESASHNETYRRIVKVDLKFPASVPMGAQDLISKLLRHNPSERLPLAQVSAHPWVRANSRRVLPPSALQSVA
Please respond with reported [Aurora B IC50 (nM)]/[PLK4 IC50 (nM)] for every item in the list.
Answers are plain numbers.

- COc1ccc2c(c1)[C@]1(C[C@H]1c1ccc3c(Nc4nc(C5CC5)nc(N5CCOCC5)c4OC)n[nH]c3c1)C(=O)N2: 1241.883

Can you give me [Aurora B IC50 (nM)]/[PLK4 IC50 (nM)] for all of these, one by one?
1. CCN1C(=O)[C@@]2(C[C@H]2c2ccc3c(Nc4ncnc(N5CC(O)C5)c4Cl)n[nH]c3c2)c2cc(OC)ccc21
2. CCOc1cc(S(=O)(=O)CC)cnc1Nc1n[nH]c2cc([C@@H]3C[C@@]34C(=O)Nc3ccc(OC)cc34)ccc12
3. COc1ccc2c(c1)[C@]1(C[C@H]1c1ccc3c(Nc4nc(C5CCOC5)ncc4OC)n[nH]c3c1)C(=O)N2 (single isomer, unassigned) [Example 200]
4. COc1cnc(C)nc1Nc1n[nH]c2cc([C@@H]3C[C@]34C(=O)Nc3ccc(C)cc34)ccc12
5. COc1ccc2c(c1)[C@]1(C[C@H]1c1ccc3c(Nc4nc(C)nc(N5CCOCC5)c4OC)n[nH]c3c1)C(=O)N2

A:
1. 230.6459
2. 961.3368
3. 523.3415
4. 22.7686
5. 471.4128
